System: SF-295 CNS
Assay: NCI-60 one-dose screen, 48 h
Settings: 10 µM unless noted
Experimental: Cells are grown in 96 well plates and exposed to the test compound for 48 hours. Compounds are tested at a single concentration, which is 10^-5 M for most compounds. The reported endpoint is percent growth (GI% or GIPRCNT), where numbers from 0 - 100% represent growth inhibition, and numbers from -100% - 0 represent cell death. For example, a value of 40 represents 60% growth inhibition. A value of 0 means no net growth occurred over the course of the experiment. […]
This is part of a sample that, as a whole, favours compounds with a hit. Of some 83,000 tested, about 20% had one in any assay. The source made the active and inactive calls. The calls were made as follows: active = growth percent below 10; inactive = the rest.
Allowed answers: active, inactive

Solved cases below.
* ClCCN(CCCl)c1ccc(/C=N/Nc2ncnc3nc[nH]c23)cc1 | inactive
* CC(=O)/C=C/c1ccc2c(c1)OCO2 | inactive
* Nc1cc2nc3ccccc3nc2cc1N | inactive
* Cn1cc(-c2csc(-c3cn(CCN4CCOCC4)c4ccccc34)n2)c2cccnc21 | inactive
* CN(C)C(=O)Oc1ccc(Br)cc1 | inactive

Answer briefly: the call reported for CC[C@H](C)[C@H](NC(=O)C12C3C4C1C1C2C3C41NC(C)=O)C(=O)N(C)[C@H](C[C@@H](OC(C)=O)c1nc(C(=O)N[C@@H](Cc2ccccc2)C[C@H](C)C(=O)OC)cs1)C(C)C (some centres not stated) in this assay.
inactive
